// provenance: ChEMBL document CHEMBL3286146

The following are reported pKd results, target or system Interleukin-2 (Homo sapiens, UniProt P60568).
pKd: −log10 of the molar value.
result_type: pKd

{"compound": "O=c1cc(-c2ccc(O)c(O)c2)oc2cc(O[C@@H]3O[C@H](CO)[C@@H](O)[C@H](O)[C@H]3O)cc(O)c12 [GALUTEOLIN]", "test_result": 7.70}
{"compound": "COc1ccc(-c2coc3cc(O[C@@H]4O[C@H](CO)[C@@H](O)[C@H](O)[C@H]4O)ccc3c2=O)cc1 [ONONIN]", "test_result": 6.92}
{"compound": "O=c1c(-c2ccc(O)cc2)coc2cc(O[C@@H]3O[C@H](CO)[C@@H](O)[C@H](O)[C@H]3O)ccc12 [DAIDZIN]", "test_result": 5.47}
{"compound": "C[C@@H]1CC[C@@]2(OC1)O[C@H]1C[C@H]3[C@@H]4CC=C5C[C@@H](O[C@@H]6O[C@H](CO)[C@@H](O)[C@H](O)[C@H]6O)CC[C@]5(C)[C@H]4CC[C@]3(C)[C@H]1[C@@H]2C [DISOGLUSIDE]", "test_result": 10.54}

----------
# System: HepG2
# assay_explanation: Anticancer activity against human HepG2 cells assessed as cell viability after 48 hrs by MTT assay
# Type: functional, cell-based
# recorded_conditions: HepG2, 48 h
pIC50: −log10 of the molar value.
// reported pIC50 per item
result_type: pIC50

{"compound": "COc1ccc(-c2coc3cc(O[C@@H]4O[C@H](CO)[C@@H](O)[C@H](O)[C@H]4O)ccc3c2=O)cc1 [ONONIN]", "result_type": "pIC50", "qual": "=", "test_result": 4.39}
{"compound": "CC(CC(=O)C[C@@H](C)[C@H]1CC(=O)[C@@]2(C)C3=C(C(=O)C[C@]12C)[C@@]1(C)CCC(=O)C(C)(C)[C@@H]1C[C@@H]3O)C(=O)O (stereo partly drawn) [GANODERIC ACID D]", "result_type": "pIC50", "qual": "=", "test_result": 4.64}
{"compound": "C[C@H](CC(=O)C[C@@H](C)[C@H]1C[C@H](O)[C@@]2(C)C3=C(C(=O)C[C@]12C)[C@@]1(C)CC[C@H](O)C(C)(C)[C@@H]1C[C@@H]3O)C(=O)O [GANODERIC ACID C2]", "result_type": "pIC50", "qual": "<", "test_result": 4.00}

----------
# assay_explanation: Retention time of the compound by chromatography
# Assay type: physicochemical
Checkbox rule: Retention_time lower than 30 min = YES; Retention_time not lower than 30 min = NO.

{"molecule": "COc1ccc(-c2coc3cc(O[C@@H]4O[C@H](CO)[C@@H](O)[C@H](O)[C@H]4O)ccc3c2=O)cc1O", "cat": "YES"}
{"molecule": "O=c1cc(-c2ccc(O)c(O)c2)oc2cc(O[C@@H]3O[C@H](CO)[C@@H](O)[C@H](O)[C@H]3O)cc(O)c12", "cat": "NO"}
{"molecule": "C[C@H](CC(=O)C[C@@H](C)[C@H]1C[C@H](O)[C@@]2(C)C3=C(C(=O)C[C@]12C)[C@@]1(C)CCC(=O)C(C)(C)[C@@H]1C[C@@H]3O)C(=O)O", "cat": "NO"}
{"molecule": "O=c1c(-c2ccc(O)cc2)coc2cc(O[C@@H]3O[C@H](CO)[C@@H](O)[C@H](O)[C@H]3O)ccc12", "cat": "YES"}
{"molecule": "CC(=O)O[C@H]1CC[C@]2(C)[C@H]3CC=C4[C@@H]5CC(C)(C)CC[C@]5(C(=O)O)CC[C@@]4(C)[C@]3(C)CC[C@H]2C1(C)C", "cat": "NO"}
{"molecule": "CC(CC(=O)C[C@@H](C)[C@H]1CC(=O)[C@@]2(C)C3=C(C(=O)C[C@]12C)[C@@]1(C)CC[C@H](O)C(C)(C)[C@@H]1C[C@@H]3O)C(=O)O (stereo partly specified)", "cat": "NO"}

----------
The following are reported Kd results, target or system Tumor necrosis factor (Homo sapiens).

{"molecule": "O=c1cc(-c2ccc(O)cc2)oc2cc(O[C@@H]3O[C@H](CO)[C@@H](O)[C@H](O)[C@H]3O)cc(O)c12", "Kd [nM]": 200}
{"molecule": "COc1ccc(-c2coc3cc(O[C@@H]4O[C@H](CO)[C@@H](O)[C@H](O)[C@H]4O)ccc3c2=O)cc1O", "Kd [nM]": 1820}
{"molecule": "CC(=O)O[C@@H]1C(=O)C2=C(C(=O)C[C@H]3C(C)(C)C(=O)CC[C@]23C)[C@]2(C)C(=O)C[C@H]([C@H](C)CC(=O)CC(C)C(=O)O)[C@@]12C (stereo partly specified)", "Kd [nM]": 2.69}
{"molecule": "C[C@H](CCC=C(CO)CO)[C@H]1CC[C@@]2(C)C3=CC[C@H]4C(C)(C)C(=O)CC[C@]4(C)C3=CC[C@]12C", "Kd [nM]": 16.8}
{"molecule": "CC(=O)O[C@@H]1C(=O)C2=C(C(=O)C[C@H]3C(C)(C)[C@@H](O)CC[C@]23C)[C@]2(C)C(=O)C[C@H]([C@H](C)CC(=O)CC(C)C(=O)O)[C@@]12C (stereo partly specified)", "Kd [nM]": 2.45}
{"molecule": "C[C@H](CC(=O)C[C@@H](C)[C@H]1C[C@H](O)[C@@]2(C)C3=C(C(=O)C[C@]12C)[C@@]1(C)CC[C@H](O)C(C)(C)[C@@H]1C[C@@H]3O)C(=O)O", "Kd [nM]": 8.39}

----------
# System: HepG2
# assay_explanation: Anticancer activity against human HepG2 cells assessed as cell viability after 48 hrs by MTT assay
# Format: functional, cell-based
# recorded_conditions: HepG2, 48 h
Checkbox rule: IC50 lower than 70 µM = true; IC50 not lower than 70 µM = false.

{"compound": "COc1ccc(-c2coc3cc(O[C@@H]4O[C@H](CO)[C@@H](O)[C@H](O)[C@H]4O)ccc3c2=O)cc1O", "cat": "false"}
{"compound": "CC(=O)O[C@H]1CC[C@]2(C)[C@H]3CC=C4[C@@H]5CC(C)(C)CC[C@]5(C(=O)O)CC[C@@]4(C)[C@]3(C)CC[C@H]2C1(C)C [ACETYL OLEANOLIC ACID]", "cat": "false"}
{"compound": "CC(C)(O)[C@@H]1CC[C@](C)([C@H]2[C@@H](O)C[C@@]3(C)[C@@H]4C[C@H](O[C@@H]5O[C@H](CO)[C@@H](O)[C@H](O)[C@H]5O)[C@H]5C(C)(C)[C@@H](O[C@@H]6OC[C@@H](O)[C@H](O)[C@H]6O)CC[C@@]56C[C@@]46CC[C@]23C)O1", "cat": "false"}
{"compound": "C[C@H](CC(=O)C[C@@H](C)[C@H]1C[C@H](O)[C@@]2(C)C3=C(C(=O)C[C@]12C)[C@@]1(C)CCC(=O)C(C)(C)[C@@H]1C[C@@H]3O)C(=O)O [GANODERIC ACID A]", "cat": "true"}
{"compound": "C/C=C1\\[C@H](O[C@@H]2O[C@H](CO)[C@@H](O)[C@H](O)[C@H]2O)OC=C(C(=O)OC)[C@H]1CC(=O)OC[C@H]1O[C@@H](OCCc2ccc(O)cc2)[C@H](O)[C@@H](O)[C@@H]1O", "cat": "false"}
{"compound": "CC(CC(=O)C[C@@H](C)[C@H]1CC(=O)[C@@]2(C)C3=C(C(=O)C[C@]12C)[C@@]1(C)CC[C@H](O)C(C)(C)[C@@H]1C[C@@H]3O)C(=O)O (stereo not given in full) [GANODERIC ACID B]", "cat": "false"}
{"compound": "C[C@H](CCC=C(CO)CO)[C@H]1CC[C@@]2(C)C3=CC[C@H]4C(C)(C)C(=O)CC[C@]4(C)C3=CC[C@]12C [GANODERIOL F]", "cat": "true"}
{"compound": "COc1ccc(-c2coc3cc(O)ccc3c2=O)cc1O [CALYCOSIN]", "cat": "false"}
{"compound": "CC(CC(=O)C[C@@H](C)[C@H]1CC(=O)[C@@]2(C)C3=C(C(=O)[C@@H](O)[C@]12C)[C@@]1(C)CC[C@H](O)C(C)(C)[C@@H]1C[C@@H]3O)C(=O)O (stereo not given in full) [GANODERIC ACID G]", "cat": "false"}
